This collection of values is drawn from patent US6670364B2.

biological target: hMCP-1 (Homo sapiens, UniProt P13500); assay: Inhibition of MCP-1-induced chemotaxis (96-well chamber, Example 16); type: cell-based; conditions: THP-1 cells, 12.5 nM hMCP-1, 2 h, 96-well microchemotaxis chamber
Sequence (P13500 24-99): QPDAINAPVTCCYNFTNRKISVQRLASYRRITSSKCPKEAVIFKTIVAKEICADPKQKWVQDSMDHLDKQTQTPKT
Sequence (P41597 whole entry partner): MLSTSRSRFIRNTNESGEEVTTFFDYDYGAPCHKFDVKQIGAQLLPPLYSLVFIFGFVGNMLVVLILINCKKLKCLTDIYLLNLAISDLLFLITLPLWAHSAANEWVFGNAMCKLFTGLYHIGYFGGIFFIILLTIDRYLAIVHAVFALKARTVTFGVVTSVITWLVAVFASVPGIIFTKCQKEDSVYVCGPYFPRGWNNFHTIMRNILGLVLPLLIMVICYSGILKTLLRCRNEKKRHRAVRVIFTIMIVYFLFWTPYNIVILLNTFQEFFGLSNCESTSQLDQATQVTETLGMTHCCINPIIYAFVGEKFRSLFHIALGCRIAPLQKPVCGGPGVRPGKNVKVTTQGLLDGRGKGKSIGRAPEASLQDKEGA
observed-property: IC50 (µM)
Please respond with the number in µM and leave the unit unwritten.

Give its IC50 value. Item: Cc1nn(C)c2ncc(C(=O)NC(=O)Nc3ccc(Cl)c(Cl)c3)c(Cl)c12 [Compound 37]
12.7

---

target: hMCP-1 (Homo sapiens, UniProt P13500); assay: Inhibition of MCP-1-induced chemotaxis (48-well chamber, Example 21); assay type: cell-based; set-up: purchased PeproTech; details: THP-1 cells, 2.5 nM hMCP-1, 48-well chamber, 2 hr
Sequence (P13500 24-99): as the sequence (P13500 24-99) above
Exercise: state measured IC50 for each of the compounds provided.
Answer by giving the amount and then stating its unit.

Give its IC50 value. Item: `Cc1nn(C)c2ncc(C(=O)NC(=O)Nc3ccc(C(=O)O)c(OC(C)C)c3)c(N3CCN(C)CC3)c12`
4 µM

Give its IC50 value. Item: `Cc1nn(C)c2ncc(C(=O)NC(=O)Nc3ccc(O)c(C(F)(F)F)c3)c(N3CCN(C)CC3)c12`
4 µM

Give its IC50 value. Item: `Cc1nn(C)c2ncc(C(=O)NC(=O)Nc3ccc(Cl)cc3)c(N3CCN(C)CC3)c12`
4 µM

Give its IC50 value. Item: `Cc1nn(C)c2ncc(C(=O)NC(=O)Nc3ccc(Cl)c(Cl)c3)c(N3CCN(C)CC3)c12`
4 µM

Give its IC50 value. Item: `Cc1nn(C)c2ncc(C(=O)NC(=O)Nc3cccc(OC(C)C)c3)c(N3CCN(C)CC3)c12`
0.7 µM

Give its IC50 value. Item: Cc1nn(C)c2ncc(C(=O)NC(=O)Nc3cccc(C(F)(F)F)c3)c(N3CCN(C)CC3)c12 [Compound 73]
1.7 µM

Give its IC50 value. Item: `Cc1nn(C)c2ncc(C(=O)NC(=O)Nc3cccc(-c4nccs4)c3)c(N3CCN(C)CC3)c12`
0.9 µM

---

biological target: UniProt P13500; experiment: Inhibition of MCP-1-induced chemotaxis (48-well chamber, Example 21); assay type: cell-based; set-up: purchased PeproTech; conditions: THP-1 cells, 2.5 nM hMCP-1, 48-well chamber, 2 hr
Please note: IC50 exactly at 4 µM is False. Only values below 4 µM get True.

Consider the compound Cc1nn(C)c2ncc(C(=O)NC(=O)Nc3ccc(Cl)c(C(=O)OC(C)C)c3)c(N3CCN(C)CC3)c12 [Compound 92] . Is its IC50 strictly less than 4 µM?
True

Consider the compound Cc1nn(C)c2ncc(C(=O)NC(=O)Nc3ccc(C(=O)N4CCOCC4)c(Cl)c3)c(N3CCN(C)CC3)c12 [Compound 94] . Is its IC50 strictly less than 4 µM?
True

Consider the compound Cc1nn(C)c2ncc(C(=O)NC(=O)Nc3ccc(F)c(C(F)(F)F)c3)c(N(C)C)c12 [Compound 44] . Is its IC50 strictly less than 4 µM?
False

Consider the compound Cc1nn(C)c2ncc(C(=O)NC(=O)Nc3ccc(F)c(C(F)(F)F)c3)c(NCc3ccccc3)c12 [Compound 61] . Is its IC50 strictly less than 4 µM?
False

Consider the compound Cc1nn(C)c2ncc(C(=O)NC(=O)Nc3ccc(F)c(C(F)(F)F)c3)c(N3CCN(C)CC3)c12.Cl [Compound 85, hydrochloride] . Is its IC50 strictly less than 4 µM?
True
